Overview of reported EC50 across a group of compounds:
Biological target: Serine/threonine-protein kinase PAK 4 (Mus musculus)
Sequence (Q8BTW9 whole entry): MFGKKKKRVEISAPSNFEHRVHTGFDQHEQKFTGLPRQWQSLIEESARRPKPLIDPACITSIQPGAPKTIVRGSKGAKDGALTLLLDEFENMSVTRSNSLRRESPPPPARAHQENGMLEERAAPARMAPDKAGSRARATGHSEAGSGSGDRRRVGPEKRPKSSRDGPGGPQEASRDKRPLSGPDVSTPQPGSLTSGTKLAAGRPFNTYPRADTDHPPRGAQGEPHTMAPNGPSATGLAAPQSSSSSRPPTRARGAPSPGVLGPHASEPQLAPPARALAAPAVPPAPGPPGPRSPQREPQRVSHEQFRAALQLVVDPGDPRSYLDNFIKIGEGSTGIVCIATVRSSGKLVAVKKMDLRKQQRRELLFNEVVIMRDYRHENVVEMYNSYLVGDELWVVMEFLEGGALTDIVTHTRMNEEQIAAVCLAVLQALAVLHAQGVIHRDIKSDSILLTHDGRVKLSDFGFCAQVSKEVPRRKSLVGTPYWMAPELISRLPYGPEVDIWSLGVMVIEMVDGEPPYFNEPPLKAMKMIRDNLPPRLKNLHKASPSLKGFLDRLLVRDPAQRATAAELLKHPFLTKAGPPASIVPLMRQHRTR
Assay: Inhibition of PAK4 in mouse NIH3T3 cells assessed as reduction in phosphorylated GEF-H1 accumulation incubated for 30 mins by immunoblotting analysis
Write the number in µM without appending the unit.

Consider the reported EC50 for these compounds:
CN1CCN(C(=O)N2Cc3c(NC(=O)c4cccc(Oc5ccccc5)c4)n[nH]c3C2(C)C)[C@@H](Cc2ccccc2)C1 0.81
CN(C)C[C@@H](NC(=O)c1ccc2[nH]nc(-c3nc4ccccc4[nH]3)c2c1)c1ccccc1 0.013
CN(C)C[C@@H](NC(=O)N1Cc2c(NC(=O)c3ccccc3)n[nH]c2C1(C)C)c1ccccc1 0.032

We now examine a further compound.
Prompt: Give the observed EC50 of CN(C)C[C@@H](OC(=O)N1Cc2c(NC(=O)C(C)(C)C)n[nH]c2C1(C)C)c1ccccc1 for Serine/threonine-protein kinase PAK 4 (Mus musculus).
Response: 0.004
